Each entry below carries its recorded Emax.
system under test: hPPARγ (Homo sapiens)
Construct: corresponding to the DEF domains (structural elements of the promoter of the PPARs: D=hinge, EF=ligand fixation domain and AF2 fixation site); expressed in transfected cells; host or cells: COS-7 (monkey kidney fibroblasts)
Sequence (P37231 238-503 limits assumed): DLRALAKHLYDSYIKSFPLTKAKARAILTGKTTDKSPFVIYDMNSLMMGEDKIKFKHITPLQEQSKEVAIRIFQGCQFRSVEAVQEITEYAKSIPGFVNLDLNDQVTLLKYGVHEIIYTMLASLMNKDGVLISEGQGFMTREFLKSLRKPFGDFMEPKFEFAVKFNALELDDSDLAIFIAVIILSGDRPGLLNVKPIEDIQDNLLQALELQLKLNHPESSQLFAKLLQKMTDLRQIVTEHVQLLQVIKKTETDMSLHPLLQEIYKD
assay summary: Gal4-hPPARγ chimera transactivation (luciferase) in COS-7 cells
Type: cell-based
condition parameters: relative to maximum activation obtained with rosiglitazone, 24 hours, read-out: PPARγ TOP % (maximum activation)
Protocol: Activation of PPARs is evaluated in vitro on a line of monkey kidney fibroblasts (COS-7) by measuring the transcriptional activity of chimeras consisting of the DNA binding domain of Gal4 transcription factor of yeast and of the ligand binding domain of the various PPARs of human origin (hPPAR). […] The test data are summarized in Table 8-1 below, which presents, for each compound, the values of maximum activation (TOP %) and the EC50 values measured for each isoform of PPAR.
parameter measured: Emax (%)

>>> quantitative_readout("CC#CC(CC(=O)O)c1ccc(OCc2ccc(-c3ccccc3)nc2OC)cc1 (stereo not drawn)")
78
>>> quantitative_readout("COc1nc(-c2ccc(C(F)(F)F)cc2)ccc1COc1ccc(OC(C)(C)C(=O)O)cc1")
51.5
>>> quantitative_readout("COc1nc(-c2ccccc2)ccc1CNc1ccc(SC(C(=O)O)c2ccccc2)cc1 (stereo not drawn)")
66.6
>>> quantitative_readout("COc1nc(-c2cccc(C(F)(F)F)c2)ccc1CNc1ccc(CCC(=O)O)cc1")
87.2
>>> quantitative_readout("COc1nc(-c2ccccc2)ccc1CNc1ccc(C(CC(=O)O)c2ccccc2)cc1 (stereo not drawn)")
65.8
>>> quantitative_readout("COc1nc(-c2ccccc2)ccc1CNc1ccc(SCC(=O)O)cc1")
70

Reference source: patent US8461183B2
